// values below are reported Activity
target: 5-hydroxytryptamine receptor 2A (Homo sapiens, UniProt P28223); test: Displacement of [3H]methylspiperone from human cloned 5HT2A receptor expressed in HEK293 cells at 3 uM after 90 mins by liquid scintillation counting; format: cell-based
Sequence (P28223 whole entry): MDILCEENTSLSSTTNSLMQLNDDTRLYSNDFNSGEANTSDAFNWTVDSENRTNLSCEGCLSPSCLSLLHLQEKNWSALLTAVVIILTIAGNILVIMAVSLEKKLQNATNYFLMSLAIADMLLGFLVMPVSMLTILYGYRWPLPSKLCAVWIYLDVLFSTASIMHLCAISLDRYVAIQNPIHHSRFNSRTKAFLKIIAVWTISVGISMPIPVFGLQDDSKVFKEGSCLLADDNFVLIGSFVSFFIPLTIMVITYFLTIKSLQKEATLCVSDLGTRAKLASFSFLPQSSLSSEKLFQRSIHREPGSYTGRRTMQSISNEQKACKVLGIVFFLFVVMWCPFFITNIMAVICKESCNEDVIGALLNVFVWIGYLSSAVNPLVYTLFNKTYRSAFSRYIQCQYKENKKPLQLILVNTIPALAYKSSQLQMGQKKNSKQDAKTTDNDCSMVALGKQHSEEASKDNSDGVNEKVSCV

>  <smilesRepresentation>
CN1C(=N)NC(=O)/C1=C\c1c[nH]c2cc(Cl)ccc12

>  <measuredTarget>
5-hydroxytryptamine receptor 2A (Homo sapiens, UniProt P28223)

>  <Activity (%)>
0

$$$$
>  <smilesRepresentation>
CN1C(=N)N(C)/C(=C/c2c[nH]c3ccc(F)cc23)C1=O

>  <measuredTarget>
5-hydroxytryptamine receptor 2A (Homo sapiens, UniProt P28223)

>  <Activity (%)>
10

$$$$
>  <smilesRepresentation>
CN1C(=N)N(C)/C(=C/c2c[nH]c3ccc(Br)cc23)C1=O

>  <measuredTarget>
5-hydroxytryptamine receptor 2A (Homo sapiens, UniProt P28223)

>  <Activity (%)>
37

$$$$
>  <smilesRepresentation>
CN1C(=N)NC(=O)/C1=C\c1c[nH]c2cc(Cl)c(Cl)cc12

>  <measuredTarget>
5-hydroxytryptamine receptor 2A (Homo sapiens, UniProt P28223)

>  <Activity (%)>
0

$$$$
>  <smilesRepresentation>
CCN1C(=N)N(C)/C(=C\c2c[nH]c3ccc(Br)cc23)C1=O

>  <measuredTarget>
5-hydroxytryptamine receptor 2A (Homo sapiens, UniProt P28223)

>  <Activity (%)>
9

$$$$
>  <smilesRepresentation>
CN1C(=N)NC(=O)/C1=C\c1c[nH]c2ccccc12

>  <measuredTarget>
5-hydroxytryptamine receptor 2A (Homo sapiens, UniProt P28223)

>  <Activity (%)>
0

$$$$
>  <smilesRepresentation>
CN1C(=N)N(C)/C(=C/c2c[nH]c3cc(Cl)c(Cl)cc23)C1=O

>  <measuredTarget>
5-hydroxytryptamine receptor 2A (Homo sapiens, UniProt P28223)

>  <Activity (%)>
12

$$$$
>  <smilesRepresentation>
CN1C(=N)N(C)/C(=C/c2c[nH]c3cc(Cl)ccc23)C1=O

>  <measuredTarget>
5-hydroxytryptamine receptor 2A (Homo sapiens, UniProt P28223)

>  <Activity (%)>
0

$$$$
>  <smilesRepresentation>
CN1C(=N)NC(=O)/C1=C\c1c[nH]c2ccc(F)cc12

>  <measuredTarget>
5-hydroxytryptamine receptor 2A (Homo sapiens, UniProt P28223)

>  <Activity (%)>
0

$$$$
>  <smilesRepresentation>
CCN1C(=N)N(C)/C(=C\c2c[nH]c3ccc(I)cc23)C1=O

>  <measuredTarget>
5-hydroxytryptamine receptor 2A (Homo sapiens, UniProt P28223)

>  <Activity (%)>
35

$$$$

====

// values below are reported Activity
biological target: 5-hydroxytryptamine receptor 2C (Homo sapiens) (UniProt P28335); experiment: Displacement of [3H]mesulergine from human cloned 5HT2C receptor expressed in HEK293 cells at 3 uM after 90 mins by liquid scintillation counting; type: cell-based
Sequence (P28335 whole entry): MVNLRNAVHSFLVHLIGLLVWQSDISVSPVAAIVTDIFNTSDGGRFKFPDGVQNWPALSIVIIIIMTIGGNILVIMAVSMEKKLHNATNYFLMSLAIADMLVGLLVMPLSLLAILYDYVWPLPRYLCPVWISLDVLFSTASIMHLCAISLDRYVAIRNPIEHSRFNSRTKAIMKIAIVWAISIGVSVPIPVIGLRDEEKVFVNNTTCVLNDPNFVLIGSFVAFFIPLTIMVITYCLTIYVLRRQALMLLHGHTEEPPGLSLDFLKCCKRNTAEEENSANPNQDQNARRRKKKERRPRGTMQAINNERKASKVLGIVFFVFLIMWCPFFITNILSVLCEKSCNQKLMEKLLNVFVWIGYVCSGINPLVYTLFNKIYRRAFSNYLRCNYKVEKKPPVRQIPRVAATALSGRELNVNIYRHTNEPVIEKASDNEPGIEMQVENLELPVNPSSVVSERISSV
measuredAttribute: Activity (%)

>  <smilesRepresentation>
CN1C(=N)N(C)/C(=C/c2c[nH]c3ccc(Br)cc23)C1=O

>  <quantityUnit>
%

>  <readoutNumber>
64

$$$$
>  <smilesRepresentation>
CN1C(=N)NC(=O)/C1=C\c1c[nH]c2ccc(Cl)cc12

>  <quantityUnit>
%

>  <readoutNumber>
0

$$$$
>  <smilesRepresentation>
CN1C(=N)N(C)/C(=C/c2c[nH]c3ccc(Cl)cc23)C1=O

>  <quantityUnit>
%

>  <readoutNumber>
43

$$$$
>  <smilesRepresentation>
CCN1C(=N)N(C)/C(=C\c2c[nH]c3ccc(Br)cc23)C1=O

>  <quantityUnit>
%

>  <readoutNumber>
18

$$$$
>  <smilesRepresentation>
CN1C(=N)NC(=O)/C1=C\c1c[nH]c2cc(F)ccc12

>  <quantityUnit>
%

>  <readoutNumber>
1

$$$$
>  <smilesRepresentation>
CN1C(=N)NC(=O)/C1=C\c1c[nH]c2cc(Cl)ccc12

>  <quantityUnit>
%

>  <readoutNumber>
0

$$$$
>  <smilesRepresentation>
CN1C(=N)N(C)/C(=C/c2c[nH]c3ccc(F)cc23)C1=O

>  <quantityUnit>
%

>  <readoutNumber>
0

$$$$
>  <smilesRepresentation>
CCN1C(=N)N(C)/C(=C\c2c[nH]c3ccc(I)cc23)C1=O

>  <quantityUnit>
%

>  <readoutNumber>
46

$$$$
>  <smilesRepresentation>
CN1C(=N)NC(=O)/C1=C\c1c[nH]c2cc(Cl)c(Cl)cc12

>  <quantityUnit>
%

>  <readoutNumber>
10

$$$$
>  <smilesRepresentation>
CN1C(=N)NC(=O)/C1=C\c1c[nH]c2ccc(F)cc12

>  <quantityUnit>
%

>  <readoutNumber>
19

$$$$
>  <smilesRepresentation>
CN1C(=N)N(C)/C(=C/c2c[nH]c3cc(Cl)c(Cl)cc23)C1=O

>  <quantityUnit>
%

>  <readoutNumber>
79

$$$$
>  <smilesRepresentation>
CCN1C(=N)N(C)/C(=C/c2c[nH]c3cc(Br)ccc23)C1=O

>  <quantityUnit>
%

>  <readoutNumber>
49

$$$$
>  <smilesRepresentation>
CN1C(=N)N(C)/C(=C/c2c[nH]c3cc(F)ccc23)C1=O

>  <quantityUnit>
%

>  <readoutNumber>
0

$$$$
>  <smilesRepresentation>
CN1C(=N)NC(=O)/C1=C\c1c[nH]c2ccccc12

>  <quantityUnit>
%

>  <readoutNumber>
6

$$$$
>  <smilesRepresentation>
CN1C(=N)NC(=O)/C1=C\c1c[nH]c2ccc(Br)cc12

>  <quantityUnit>
%

>  <readoutNumber>
0

$$$$
>  <smilesRepresentation>
CN1C(=N)N(C)/C(=C/c2c[nH]c3cc(Cl)ccc23)C1=O

>  <quantityUnit>
%

>  <readoutNumber>
49

$$$$
